This section presents compounds with their documented pIC50 values.
- MEASURED ON: UniProt P49682
- Sequence (P49682 whole entry): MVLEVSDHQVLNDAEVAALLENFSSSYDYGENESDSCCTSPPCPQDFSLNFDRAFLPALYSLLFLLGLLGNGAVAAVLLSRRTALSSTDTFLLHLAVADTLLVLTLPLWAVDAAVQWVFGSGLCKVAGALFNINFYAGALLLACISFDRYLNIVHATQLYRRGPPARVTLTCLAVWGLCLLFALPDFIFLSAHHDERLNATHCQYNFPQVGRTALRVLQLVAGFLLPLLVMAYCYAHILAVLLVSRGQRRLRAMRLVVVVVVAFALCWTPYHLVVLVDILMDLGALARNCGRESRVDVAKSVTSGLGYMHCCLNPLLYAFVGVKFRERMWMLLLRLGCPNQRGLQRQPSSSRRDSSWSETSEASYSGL
- EXPERIMENT DESCRIPTION: Displacement of radiolabeled CXCL11 from human CXCR3 expressed in CHO cells by scintillation proximity assay
- Type: cell-based
The value called pIC50 is obtained by taking minus log10 of the concentration in mol/L.

Could you share which pIC50 value was measured for `CN(CCO)C(=O)[C@@H]1C=C2c3cccc4[nH]cc(c34)C[C@H]2N(C(=O)Nc2ccccc2)C1` ?
7.18

Could you share which pIC50 value was measured for `O=C([C@@H]1C=C2c3cccc4[nH]cc(c34)C[C@H]2N(C(=O)Nc2ccccc2)C1)N1CC[C@H](O)C1` ?
7.33

Could you share which pIC50 value was measured for CC1CN(C(=O)[C@@H]2C=C3c4cccc5[nH]cc(c45)C[C@H]3N(C(=O)Nc3ccccc3)C2)CC(C)O1 (stereo partly specified) ?
5.94

Could you share which pIC50 value was measured for `O=C([C@@H]1C=C2c3cccc4[nH]cc(c34)C[C@H]2N(C(=O)Nc2ccccc2)C1)N1CCNCC1` ?
6.00

Could you share which pIC50 value was measured for `O=C([C@@H]1C=C2c3cccc4[nH]cc(c34)C[C@H]2N(C(=O)Nc2ccccc2)C1)N1CCCCC1` ?
8.05

---

This section presents compounds with their documented IC50 values.
- MEASURED ON: C-X-C chemokine receptor type 3 (Mus musculus)
- Sequence (O88410 whole entry): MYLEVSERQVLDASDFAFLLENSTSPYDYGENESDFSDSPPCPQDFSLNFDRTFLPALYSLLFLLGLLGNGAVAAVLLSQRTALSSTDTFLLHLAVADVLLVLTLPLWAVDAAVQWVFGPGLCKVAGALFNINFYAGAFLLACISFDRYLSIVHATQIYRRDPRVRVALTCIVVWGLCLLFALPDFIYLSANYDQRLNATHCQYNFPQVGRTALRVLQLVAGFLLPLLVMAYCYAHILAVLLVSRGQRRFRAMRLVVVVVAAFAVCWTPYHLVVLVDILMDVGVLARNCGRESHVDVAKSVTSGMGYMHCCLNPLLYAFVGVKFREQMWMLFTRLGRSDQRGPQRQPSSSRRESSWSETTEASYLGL
- EXPERIMENT DESCRIPTION: Antagonist activity at mouse CXCR3 expressed in mouse L1.2 cells assessed as inhibition of ITAC-induced calcium mobilization by FLIPR assay
// return numeric value only (unit: nM, not printed)

Use the examples below as a reference point.
INSERT INTO results (smiles_repr, experimental_readout, number) VALUES
  ('O=C([C@@H]1C=C2c3cccc4[nH]cc(c34)C[C@H]2N(C(=O)Nc2cccc(F)c2)C1)N1CCCC1', 'IC50', 2),
  ('O=C([C@@H]1C=C2c3cccc4[nH]cc(c34)C[C@H]2N(C(=O)Nc2ccccc2)C1)N1CC=CC1', 'IC50', 3),
  ('O=C([C@@H]1C=C2c3cccc4[nH]cc(c34)C[C@H]2N(C(=O)Nc2ccccc2)C1)N1CCCCCC1', 'IC50', 13),
  ('COc1cccc(NC(=O)N2C[C@H](C(=O)N3CCCC3)C=C3c4cccc5[nH]cc(c45)C[C@H]32)c1', 'IC50', 74),
  ('O=C([C@@H]1C=C2c3cccc4[nH]cc(c34)C[C@H]2N(C(=O)Nc2ccccc2)C1)N1CCOCC1', 'IC50', 12);

API: value(readout= IC50, system= C-X-C chemokine receptor type 3 (Mus musculus), query= `CN1CCN(CCn2cc3c4c(cccc42)C2=C[C@@H](C(=O)N4CCCC4)CN(C(=O)Nc4ccccc4)[C@@H]2C3)CC1` )
3

API: value(readout= IC50, system= C-X-C chemokine receptor type 3 (Mus musculus), query= `O=C([C@@H]1C=C2c3cccc4[nH]cc(c34)C[C@H]2N(C(=O)Nc2ccccc2)C1)N1CCC(O)CC1` )
8

---

This section presents compounds with their documented pIC50 values.
- MEASURED ON: C-X-C chemokine receptor type 3 (Homo sapiens, UniProt P49682)
- Sequence (P49682 whole entry): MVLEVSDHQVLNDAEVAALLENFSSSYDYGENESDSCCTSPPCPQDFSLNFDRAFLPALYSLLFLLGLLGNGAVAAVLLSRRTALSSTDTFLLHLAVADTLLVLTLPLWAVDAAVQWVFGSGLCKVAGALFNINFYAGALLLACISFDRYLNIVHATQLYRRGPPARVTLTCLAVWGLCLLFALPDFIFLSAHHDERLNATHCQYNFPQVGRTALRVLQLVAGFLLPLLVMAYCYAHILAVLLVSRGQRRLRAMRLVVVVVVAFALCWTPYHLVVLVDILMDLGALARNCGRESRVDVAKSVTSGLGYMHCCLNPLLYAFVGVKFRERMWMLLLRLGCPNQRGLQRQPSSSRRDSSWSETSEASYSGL
- EXPERIMENT DESCRIPTION: Displacement of radiolabeled CXCL11 from human CXCR3 expressed in CHO cells by scintillation proximity assay
- Assay type: cell-based
pIC50: −log10 of the molar value.

INSERT INTO measurements (compound, experimental_readout, result) VALUES
  ('O=C([C@@H]1C=C2c3cccc4[nH]cc(c34)C[C@H]2N(C(=O)NC2CCC(O)CC2)C1)N1CCCC1 (stereo partly drawn)', 'pIC50', '< 5.00'),
  ('O=C([C@@H]1C=C2c3cccc4[nH]cc(c34)C[C@H]2N(C(=O)c2ccccc2)C1)N1CCCC1', 'pIC50', '< 5.00');

Could you share which pIC50 value was measured for `O=C([C@@H]1C=C2c3cccc4[nH]cc(c34)C[C@H]2N(C(=O)Nc2cc[nH]c2)C1)N1CCCC1` ?
< 5.00
